Would you kindly list IC50 for each of these compounds?
target: Beta-secretase 1 (Homo sapiens); experiment: Inhibition of BACE1 (unknown origin) after 90 mins by fluorescence assay; conditions: read-out: IC50
Sequence (P56817 whole entry): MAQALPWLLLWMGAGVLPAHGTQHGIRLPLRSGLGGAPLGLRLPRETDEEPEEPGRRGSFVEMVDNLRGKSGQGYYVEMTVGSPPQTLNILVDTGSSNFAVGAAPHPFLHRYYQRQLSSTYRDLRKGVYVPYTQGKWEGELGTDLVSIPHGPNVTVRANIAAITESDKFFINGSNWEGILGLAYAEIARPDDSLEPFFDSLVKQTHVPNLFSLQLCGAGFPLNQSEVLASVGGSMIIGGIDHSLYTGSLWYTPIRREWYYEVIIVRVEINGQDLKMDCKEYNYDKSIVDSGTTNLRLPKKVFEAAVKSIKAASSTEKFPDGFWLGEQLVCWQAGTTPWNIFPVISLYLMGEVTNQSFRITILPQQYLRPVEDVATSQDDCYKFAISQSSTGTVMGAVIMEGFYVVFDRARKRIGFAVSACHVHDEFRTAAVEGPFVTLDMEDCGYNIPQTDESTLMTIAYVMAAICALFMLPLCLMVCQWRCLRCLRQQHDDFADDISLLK

Record request: IC50 value, item `CCCN(CCC)C(=O)c1cccc(C(=O)N[C@@H](Cc2ccccc2)[C@@H](O)CC(=O)N[C@@H](CC(C)C)C(=O)N[C@@H](C)C(=O)N(C)[C@H](Cc2ccccc2)C(=O)OCc2ccccc2)c1`
1.01 µM

Record request: IC50 value, item `CCCN(CCC)C(=O)c1cccc(C(=O)N[C@@H](Cc2ccccc2)[C@@H](O)CC(=O)N[C@@H](CC(C)C)C(=O)N[C@@H](C)C(=O)N(C)[C@H](Cc2ccccc2)C(=O)OCc2ccccc2)n1`
> 10 µM

Record request: IC50 value, item `CC(C)C[C@H](NC(=O)C[C@H](O)[C@H](Cc1ccccc1)NC(=O)c1cccc(C(=O)N2CCCC2=O)c1)C(=O)N[C@@H](C)C(=O)N(C)[C@H](Cc1ccccc1)C(=O)O`
> 10 µM

Record request: IC50 value, item `COC(=O)[C@H](C)NC(=O)[C@H](CC(C)C)NC(=O)C[C@H](O)[C@H](Cc1ccccc1)NC(=O)OC(C)(C)C`
> 10 µM

Record request: IC50 value, item `CC(C)C[C@H](NC(=O)C[C@H](O)[C@H](Cc1ccccc1)NC(=O)OC(C)(C)C)C(=O)N[C@@H](C)C(=O)N(C)[C@H](Cc1ccccc1)C(=O)O`
> 10 µM

Record request: IC50 value, item `COC(=O)[C@H](CC(C)C)NC(=O)C[C@H](O)[C@H](Cc1ccccc1)NC(=O)OC(C)(C)C`
> 10 µM

---

biological target: Beta-secretase 1 (Homo sapiens); test: Inhibition of BACE1 (unknown origin) at 10 uM after 90 mins by fluorescence assay
Would you kindly list inhibition for each of these compounds?

Record request: inhibition value, item `COC(=O)[C@H](CC(C)C)NC(=O)C[C@H](O)[C@H](Cc1ccccc1)NC(=O)[C@H](CCC(N)=O)N(C)C(=O)OCc1ccccc1`
24.2%

Record request: inhibition value, item `COC(=O)[C@H](C)NC(=O)[C@H](CC(C)C)NC(=O)C[C@H](O)[C@H](Cc1ccccc1)NC(=O)OC(C)(C)C`
11.6%

Record request: inhibition value, item `CC(C)C[C@H](NC(=O)C[C@H](O)[C@H](Cc1ccccc1)NC(=O)OC(C)(C)C)C(=O)N[C@@H](C)C(=O)N(C)[C@H](Cc1ccccc1)C(=O)O`
41.7%

Record request: inhibition value, item `COC(=O)[C@H](CC(C)C)NC(=O)C[C@H](O)[C@H](Cc1ccccc1)NC(=O)[C@H](CCC(N)=O)N(C)C(=O)[C@@H](NC(=O)OCc1ccccc1)C(C)C`
75%

Record request: inhibition value, item `CC(C)C[C@H](NC(=O)C[C@H](O)[C@H](Cc1ccccc1)NC(=O)c1cccc(C(=O)N2CCCC2=O)c1)C(=O)N[C@@H](C)C(=O)N(C)[C@H](Cc1ccccc1)C(=O)O`
35.1%

Record request: inhibition value, item `CC(C)C[C@H](NC(=O)C[C@H](O)[C@H](Cc1ccccc1)NC(=O)[C@@H](N)Cc1cc2ccccc2[nH]1)C(=O)N[C@@H](C)C(=O)N(C)[C@H](Cc1ccccc1)C(=O)OCc1ccccc1`
33.9%
